// IC50 lookup, one value per entry
Target: 5HT-Transporter (Homo sapiens)
Construct: Human platelet membranes (Oceanix Biosciences Corporation, Hanover, Md., USA) were thawed; tissue Oceanix Biosciences Corporation, Hanover, Md., USA; host or cells: human platelet membranes
Sequence (P31645 whole entry): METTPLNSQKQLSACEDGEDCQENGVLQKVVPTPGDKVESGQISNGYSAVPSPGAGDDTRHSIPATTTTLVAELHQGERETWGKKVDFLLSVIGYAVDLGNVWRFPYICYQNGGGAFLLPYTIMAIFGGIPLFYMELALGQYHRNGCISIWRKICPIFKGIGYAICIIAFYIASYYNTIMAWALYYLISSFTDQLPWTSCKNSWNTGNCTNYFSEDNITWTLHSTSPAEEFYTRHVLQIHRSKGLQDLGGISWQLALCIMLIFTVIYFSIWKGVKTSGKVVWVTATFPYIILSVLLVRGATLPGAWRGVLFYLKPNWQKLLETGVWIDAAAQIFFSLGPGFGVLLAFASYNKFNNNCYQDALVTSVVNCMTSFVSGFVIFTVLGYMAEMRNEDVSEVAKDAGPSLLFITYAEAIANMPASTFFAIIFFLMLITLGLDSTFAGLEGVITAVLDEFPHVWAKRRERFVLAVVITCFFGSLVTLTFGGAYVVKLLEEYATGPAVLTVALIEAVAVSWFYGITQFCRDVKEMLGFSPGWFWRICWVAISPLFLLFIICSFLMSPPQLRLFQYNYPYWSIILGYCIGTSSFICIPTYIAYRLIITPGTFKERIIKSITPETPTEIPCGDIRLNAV
Assay: Binding experiment for the 5HT-transporter ([3H]paroxetine, human platelet membranes)
Conditions: [3H]paroxetine 0.5 nM, read-out: h-5HTT pIC50 (converted)
Method: The interaction of a compound of Formula (I) with α2-adrenoceptor receptors was assessed in in vitro radioligand binding experiments. […] When equilibrium of binding is reached, the receptor bound radioactivity is separated from the non-bound radioactivity, and the receptor- or transporter-bound activity is counted. The interaction of the test compounds with the receptor is assessed in competition binding experiments. […]
Report the figure in nM without appending any unit label.

| SMILES_STRING | SYSTEM_TESTED | IC50 / nM |
| --- | --- | --- |
| C/C(=C\c1ccccc1)CN1CCC(Nc2nccn(Cc3ccc(OC(F)(F)F)cc3)c2=O)CC1 | 5HT-Transporter (Homo sapiens) | 1260 |
| CCCCN(Cc1ccccc1)C(=O)Cn1ccnc(NC2CCN(C/C(C)=C/c3ccccc3)CC2)c1=O | 5HT-Transporter (Homo sapiens) | 794 |
| C/C(=C\c1ccccc1)CN1CCC(Nc2nccn(Cc3ccccc3Br)c2=O)CC1 | 5HT-Transporter (Homo sapiens) | 200 |

Look at this compound and give its reported IC50. C/C(=C\c1ccccc1)CN1CCC(Nc2nccn(Cc3ccc(CNC(=O)NCc4ccccc4)cc3)c2=O)CC1
501

Look at this compound and give its reported IC50. C/C(=C\c1ccccc1)CN1CCC(Nc2nccn(CCCN(CC(=O)c3ccccc3)Cc3ccccc3)c2=O)CC1
631

Look at this compound and give its reported IC50. COCCNC(=O)c1ccc(-n2ccnc(NC3CCN(C/C(C)=C/c4ccccc4)CC3)c2=O)cc1
631

Look at this compound and give its reported IC50. C/C(=C\c1ccccc1)CN1CCC(Nc2nccn(CC(=O)NCc3ccco3)c2=O)CC1
3160

Look at this compound and give its reported IC50. C/C(=C\c1ccccc1)CN1CCC(Nc2nccn(CCc3ccccc3)c2=O)CC1
398

====

Target: hα2A receptor (Homo sapiens, UniProt P08913)
Construct: expressed in transfected cells; host or cells: CHO cells, stably transfected; membrane preparation
Sequence (P08913 1-465): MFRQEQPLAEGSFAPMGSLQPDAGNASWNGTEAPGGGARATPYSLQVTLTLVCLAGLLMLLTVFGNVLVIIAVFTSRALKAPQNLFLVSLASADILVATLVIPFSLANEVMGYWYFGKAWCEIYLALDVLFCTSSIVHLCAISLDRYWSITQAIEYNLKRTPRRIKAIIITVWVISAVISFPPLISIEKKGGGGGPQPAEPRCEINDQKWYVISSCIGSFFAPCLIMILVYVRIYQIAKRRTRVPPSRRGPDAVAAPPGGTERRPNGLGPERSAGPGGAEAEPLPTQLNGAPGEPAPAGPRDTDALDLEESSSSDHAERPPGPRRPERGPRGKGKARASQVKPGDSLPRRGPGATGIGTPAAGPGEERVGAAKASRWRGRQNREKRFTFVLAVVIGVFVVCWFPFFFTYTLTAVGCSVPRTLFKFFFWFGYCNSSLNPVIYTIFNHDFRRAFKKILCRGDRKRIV
Test: Radioligand binding experiment for α2A-adrenoceptor ([3H]raulwolscine, CHO cell membranes)
Conditions: [3H]raulwolscine binding, read-out: h-α2A pIC50 (converted)
The label met is reserved for IC50 strictly under 80 nM; not met covers values equal to or above it.

Take the compound C/C(=C\c1ccccc1)CN1CCC(Nc2nccn(Cc3ccc(CNC(=O)c4ccc(C#N)cc4)cc3)c2=O)CC1 [1-75] and say whether its IC50 is less than 80 nM.
not met

Take the compound C/C(=C\c1ccccc1)CN1CCC(Nc2nccn(CC(=O)N(CCN3CCCC3)Cc3ccc(F)cc3)c2=O)CC1 [1-136] and say whether its IC50 is less than 80 nM.
met

Take the compound COc1ccc(Cn2ccnc(NC3CCN(C/C(C)=C/c4ccccc4)CC3)c2=O)cc1 [3-11] and say whether its IC50 is less than 80 nM.
met

Take the compound C/C(=C\c1ccccc1)CN1CCC(Nc2nccn(Cc3cccc(NCCN(C)C)c3)c2=O)CC1 [1-103] and say whether its IC50 is less than 80 nM.
met

Take the compound COC(=O)C1CCN(C(=O)c2ccc(-n3ccnc(NC4CCN(C/C(C)=C/c5ccccc5)CC4)c3=O)cc2)CC1 [2-16] and say whether its IC50 is less than 80 nM.
met

Take the compound C/C(=C\c1ccccc1)CN1CCC(Nc2nccn(CCCN(C)C(=O)Nc3ccccc3)c2=O)CC1 [1-121] and say whether its IC50 is less than 80 nM.
not met

Take the compound C/C(=C\c1ccccc1)CN1CCC(Nc2nccn(-c3ccc(NC(=O)c4cccc(F)c4)cc3)c2=O)CC1 [1-77] and say whether its IC50 is less than 80 nM.
not met
